Reference source for all entries: ChEMBL document CHEMBL1201861

Tested on: COLO-668
ASSAY_NAME: cells
Type: functional, cell-based, Homo sapiens
STATED_CONDITIONS: Homo sapiens, COLO-668
Description: SANGER: Inhibition of human COLO-668 cell growth in a cell viability assay.
pIC50: −log10 of the molar value.
REPORTED_METRIC: pIC50

Some compounds with known pIC50 results, for comparison:
>>> result("Cc1ccc(-c2c(C(=O)CCl)n(CCCO)c3ncnc(N)c23)cc1")
"< 5.40"
>>> result("Cc1cc([N+](=O)[O-])ccc1NS(=O)(=O)c1cc(Cl)ccc1Cl")
5.35
>>> result("CS(=O)(=O)c1ccc(C(=O)Nc2ccc(Cl)c(-c3ccccn3)c2)c(Cl)c1 [VISMODEGIB]")
"< 5.00"

// map CCN(CC)CCCCNc1ncc2cc(-c3cc(OC)cc(OC)c3)c(NC(=O)NC(C)(C)C)nc2n1 [PD-173074] to recorded pIC50 (system: COLO-668)
< 5.70

Item Oc1ccc2ccccc2c1SSc1c(O)ccc2ccccc12 with COLO-668 - pIC50?
< 4.49

----------
Entries and their IC50
Tested on: RO82-W-1;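 further: growth inhibition of human RO82-W-1 cells, measured with a cell viability assay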
ASSAY_NAME: cells
Assay type: functional, cell-based, Homo sapiens
STATED_CONDITIONS: Homo sapiens, RO82-W-1
Description: SANGER: Inhibition of human RO82-W-1 cell growth in a cell viability assay.
Where a name gives a salt, the structure may show the parent alone.

Sample records with IC50:
>>> result("CO[C@H]1C[C@@H]2CC[C@@H](C)[C@@](O)(O2)C(=O)C(=O)N2CCCC[C@H]2C(=O)O[C@H]([C@H](C)C[C@@H]2CC[C@@H](OC(=O)C(C)(CO)CO)[C@H](OC)C2)CC(=O)[C@H](C)/C=C(\\C)[C@@H](O)[C@@H](OC)C(=O)[C@H](C)C[C@H](C)/C=C/C=C/C=C/1C")
"> 0.2 µM"
>>> result("COC1=CC(c2cc3ccccc3[nH]2)=N/C1=C\\c1[nH]c(C)cc1C [OBATOCLAX MESYLATE]")
"2.41 µM"

Query (compound): Cc1cn(-c2cc(NC(=O)c3ccc(C)c(Nc4nccc(-c5cccnc5)n4)c3)cc(C(F)(F)F)c2)cn1 ; field requested: IC50
> 2 µM

Given CN(C)C(=N)NC(=N)N , state its recorded IC50.
> 20000 µM

Using the record for CCN(CC)CCCCNc1ncc2cc(-c3cc(OC)cc(OC)c3)c(NC(=O)NC(C)(C)C)nc2n1 , report its IC50.
> 2 µM

----------
Entries and their measured IC50 follow.
Tested on: HO-1-N-1;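 further: growth inhibition of human HO-1-N-1 cells, read out with a cell viability assay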
ASSAY_NAME: cells
Format: functional, cell-based, Homo sapiens
STATED_CONDITIONS: Homo sapiens, HO-1-N-1
Description: SANGER: Inhibition of human HO-1-N-1 cell growth in a cell viability assay.
Answer with a number only, understood to be in nM.

Some molecules with recorded IC50:
>>> readout_number("CC(C)c1ccccc1Cc1cc(C(=O)Nc2ccc(S(=O)(=O)c3ccccc3C(C)(C)C)cc2)c(O)c(O)c1O")
1420
>>> readout_number("Nc1ccn([C@@H]2O[C@H](CO)[C@@H](O)C2(F)F)c(=O)n1")
23.8

Turning now to a further record.
Tell me the measured IC50 of CO[C@H]1C[C@@H]2CC[C@@H](C)[C@@](O)(O2)C(=O)C(=O)N2CCCC[C@H]2C(=O)O[C@H]([C@H](C)C[C@@H]2CC[C@@H](OC(=O)C(C)(CO)CO)[C@H](OC)C2)CC(=O)[C@H](C)/C=C(\C)[C@@H](O)[C@@H](OC)C(=O)[C@H](C)C[C@H](C)/C=C/C=C/C=C/1C , please.
8.2
